- assay-target: T1, orthogonal hCD122 receptor (hoRb), hCD122 with H133D and Y134F (human, UniProt P14784 27-550); further: reference of the scale not given here
- T1 sequence: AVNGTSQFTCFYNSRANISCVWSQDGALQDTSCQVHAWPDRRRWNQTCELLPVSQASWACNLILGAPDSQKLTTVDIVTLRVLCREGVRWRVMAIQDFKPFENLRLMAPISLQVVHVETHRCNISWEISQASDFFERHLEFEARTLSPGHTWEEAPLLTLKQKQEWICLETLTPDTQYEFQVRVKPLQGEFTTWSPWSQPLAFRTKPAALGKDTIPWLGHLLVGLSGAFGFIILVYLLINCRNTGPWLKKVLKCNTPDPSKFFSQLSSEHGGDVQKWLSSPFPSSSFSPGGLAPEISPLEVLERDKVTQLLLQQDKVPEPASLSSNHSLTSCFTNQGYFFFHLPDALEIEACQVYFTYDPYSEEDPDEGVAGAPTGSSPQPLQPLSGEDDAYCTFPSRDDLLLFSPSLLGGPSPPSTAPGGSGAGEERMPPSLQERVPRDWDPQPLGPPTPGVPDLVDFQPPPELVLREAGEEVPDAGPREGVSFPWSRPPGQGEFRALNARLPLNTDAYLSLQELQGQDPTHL
- experimental-details: cell-based or functional assay
outcome-measure: Relative Proliferation Fold Change NKL 1:50

binder	assay-value
SQILKA (ligand) APTSSSTKKTQLQLSQLLILLKAILNGINNYKNPKLTRMLTFKFYMPKKATELKHLQCLEEELKPLEEVLNLAQSKNFHLRPRDLISNINVIVLELKGSETTFMCEYADETATIVEFLNRWITFCQSIISTLT	1.67 fold
SQVLWA (ligand) APTSSSTKKTQLQLSQLLVLLWAILNGINNYKNPKLTRMLTFKFYMPKKATELKHLQCLEEELKPLEEVLNLAQSKNFHLRPRDLISNINVIVLELKGSETTFMCEYADETATIVEFLNRWITFCQSIISTLT	0.54 fold
ΔT7, SQVLKA (ligand) APTSSSKKTQLQLSQLLVLLKAILNGINNYKNPKLTRMLTFKFYMPKKATELKHLQCLEEELKPLEEVLNLAQSKNFHLRPRDLISNINVIVLELKGSETTFMCEYADETATIVEFLNRWITFCQSIISTLT	1.76 fold
D109C, SQVLKA (ligand) APTSSSTKKTQLQLSQLLVLLKAILNGINNYKNPKLTRMLTFKFYMPKKATELKHLQCLEEELKPLEEVLNLAQSKNFHLRPRDLISNINVIVLELKGSETTFMCEYACETATIVEFLNRWITFCQSIISTLT	1.52 fold
